The values you see were collected from the supplement of paper PMC12042874.

experiment: amyloid nucleation score (Sup35N fusion, yeast selection) (log enrichment); library NNK2; higher = more nucleation; inactive = no reads after selection;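 note: zero at mode of non-aggregating sequences after 7 days selection at 30°C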
# if value of amyloid nucleation score reaches 0.4, tag fulfilled; if it stays below, tag not fulfilled

Solved entries (count: 6):
# substance, class
measured = [
    ("SFFVRKLIGNSYHN", "fulfilled"),
    ("HCKSDPWLEPTSVWVFIRLV", "fulfilled"),
    ("GVNSLVERFNLWYVLGERTF", "not fulfilled"),
    ("FHLIALNCRWADDLFIGSGV", "not fulfilled"),
    ("IPRGLFCLLYNVVKEYFVLR", "not fulfilled"),
    ("KRGKMHYCKFAHAAITVTQL", "not fulfilled"),
]

Entry IKLDIYNWAFSFNWFDK : is its amyloid nucleation score no less than 0.4?
fulfilled

* * *

assay: amyloid nucleation score (Sup35N fusion, yeast selection) (log enrichment); library NNK3; higher = more nucleation; inactive = no reads after selection
readout.label: amyloid nucleation score

Solved cases below.
# substance, readout.label, observed.result
records = [
    ("FMPHARASQQLPGGSHFLNL", "amyloid nucleation score", "inactive"),
    ("YFIVSWFFQNCFR", "amyloid nucleation score", 1.19),
    ("IVKRFHYYMSVRKLMSKFGL", "amyloid nucleation score", "inactive"),
    ("QIGFCS", "amyloid nucleation score", "inactive"),
    ("YFRFFTFSNCRDYKDTYPTL", "amyloid nucleation score", 0.972),
]

Would you mind telling me what amyloid nucleation score value was observed for NPPKDGYMLTWIIYDRKAGT ?
inactive

# get_value(readout='amyloid nucleation score', item= MKSKKPNSLDENYGSMRHF )
inactive

* * *

experiment: amyloid nucleation score (Sup35N fusion, yeast selection) (log enrichment); library NNK2; higher = more nucleation; inactive = no reads after selection
# label = met if amyloid nucleation score >= -0.4 else not met

Solved entries (count: 5):
# ordered.residues, class
measured = [
    ("CMMLAPLCLSLL", "met"),
    ("VEFYCSTERCLYDFTNG", "not met"),
    ("RIKGSGGPNVLGWFRMVLCS", "met"),
    ("FLWVLIQANYLLTEMELSSG", "not met"),
    ("SSNHTPTVVMHDHIPVLNFR", "not met"),
]

# input for lookup
Record VQDAFVYFNAELRWYDILGQ ; criterion: amyloid nucleation score no lower than -0.4. Met?
met

* * *

assay: amyloid nucleation score (Sup35N fusion, yeast selection) (log enrichment); library NNK3; higher = more nucleation; inactive = no reads after selection
readout.label: amyloid nucleation score

Consider the worked cases shown below.
# ordered.residues, readout.label, observed.result
data = [
    ("SICMNNLCVSWTMPYT", "amyloid nucleation score", 1.5),
    ("LISINLVQTSPRPRHYYLCS", "amyloid nucleation score", "inactive"),
    ("LPVVFLCRYDSI", "amyloid nucleation score", "inactive"),
    ("HARFNVRNN", "amyloid nucleation score", "inactive"),
    ("PVNEFYYLFCKRVYPCALQI", "amyloid nucleation score", 0.295),
    ("FTYVNSHECWLVKDMVAYFL", "amyloid nucleation score", 3),
    ("SFDILTAVVT", "amyloid nucleation score", "inactive"),
    ("DFVTHWSVAMLMI", "amyloid nucleation score", "inactive"),
]

From here, focus on the item given below.
What measured amyloid nucleation score goes with DYGSFMYSLTSCMVNYWYMA ?
inactive
